molecular target: IDO (Homo sapiens, UniProt P14902); construct: endogenous in cells; assay: In vitro IDO inhibitory activity in IFN-γ-stimulated Hela cells
Sequence (P14902 whole entry): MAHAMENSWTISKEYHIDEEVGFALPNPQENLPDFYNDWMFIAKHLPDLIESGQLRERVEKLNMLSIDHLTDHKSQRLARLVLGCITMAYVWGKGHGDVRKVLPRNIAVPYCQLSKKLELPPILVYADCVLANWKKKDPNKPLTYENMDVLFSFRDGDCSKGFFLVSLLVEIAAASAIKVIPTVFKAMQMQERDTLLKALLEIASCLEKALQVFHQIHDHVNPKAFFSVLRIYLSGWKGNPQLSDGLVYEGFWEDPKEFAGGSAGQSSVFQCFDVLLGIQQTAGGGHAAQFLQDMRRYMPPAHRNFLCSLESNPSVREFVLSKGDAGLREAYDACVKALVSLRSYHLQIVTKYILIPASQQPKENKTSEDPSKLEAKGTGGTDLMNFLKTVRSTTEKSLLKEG
measured_endpoint: IC50

GET /values?readout=IC50&item= CC[C@@]1(OC(=O)OCSSCOC(=O)OC(CC2c3ccccc3-c3cncn32)C2CCCCC2)C(=O)OCc2c1cc1n(c2=O)Cc2cc3ccccc3nc2-1 (stereo partly shown)
~80 nM

Origin of values: patent US20220133895A1
